FYI, the data here is from paper PMC12757722.

Target: K-Ras (Q61H) (Homo sapiens, UniProt P01116, Q61H)
Sequence (P01116 2-185 isoform P01116-2 Q61H): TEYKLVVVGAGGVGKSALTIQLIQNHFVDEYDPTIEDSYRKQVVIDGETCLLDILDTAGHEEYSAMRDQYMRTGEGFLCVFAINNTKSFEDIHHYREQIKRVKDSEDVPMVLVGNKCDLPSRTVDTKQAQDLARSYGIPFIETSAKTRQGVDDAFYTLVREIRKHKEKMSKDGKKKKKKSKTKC
Assay: MST binding of labeled nucleotide
Settings: read-out: MST GTP Kd
pKd: −log10 of the molar value.
measured property: pKd

In [3]: df
Out[3]:
                                smiles_text  measured_property  test_result
0  Nc1nc2c(ncn2[C@@H]2O[C@H](COP(=O)(O)OP(=O)(O)OP(=O)(O)O)[C@@H](O)[C@H]2O)c(=O)[nH]1                pKd         6.80

====

Molecular target: K-Ras (G12D) (Homo sapiens, UniProt P01116, G12D)
Sequence (P01116 2-185 isoform P01116-2 G12D): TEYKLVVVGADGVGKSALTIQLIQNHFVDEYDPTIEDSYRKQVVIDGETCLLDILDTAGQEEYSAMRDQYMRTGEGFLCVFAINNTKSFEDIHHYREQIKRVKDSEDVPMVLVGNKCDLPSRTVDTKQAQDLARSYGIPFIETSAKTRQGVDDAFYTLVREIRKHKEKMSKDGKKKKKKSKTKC
Experiment: Filtration binding assay with α-[32P]GTP
Conditions: read-out: Filtration assay GTP Kd; K-Ras (G12D); 23°C
measured property: Kd

In [3]: df
Out[3]:
                                smiles_text  measured_property  test_result
0  Nc1nc2c(ncn2[C@@H]2O[C@H](COP(=O)(O)OP(=O)(O)OP(=O)(O)O)[C@@H](O)[C@H]2O)c(=O)[nH]1                 Kd       345 nM

====

Target: K-Ras (G12D) (Homo sapiens, UniProt P01116, G12D)
Test: MST binding of labeled nucleotide
Settings: read-out: MST GTP Kd
measured property: Kd (nM)

>>> print(df.to_string())
                                smiles_text  measured_property  test_result
0  Nc1nc2c(ncn2[C@@H]2O[C@H](COP(=O)(O)OP(=O)(O)OP(=O)(O)O)[C@@H](O)[C@H]2O)c(=O)[nH]1                 Kd          244

====

Target: K-Ras (G12C) (Homo sapiens, UniProt P01116, G12C)
Sequence (P01116 2-185 isoform P01116-2 G12C): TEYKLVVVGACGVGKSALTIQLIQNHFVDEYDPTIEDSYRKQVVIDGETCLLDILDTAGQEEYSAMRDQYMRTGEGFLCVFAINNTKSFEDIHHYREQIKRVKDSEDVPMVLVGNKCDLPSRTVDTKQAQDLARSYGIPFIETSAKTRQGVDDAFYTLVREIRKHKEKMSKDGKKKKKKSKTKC
Assay: MST binding of labeled nucleotide
Settings: read-out: MST GTP Kd
measured property: Kd (µM)

                                smiles_text  units_text  test_result
0  Nc1nc2c(ncn2[C@@H]2O[C@H](COP(=O)(O)OP(=O)(O)OP(=O)(O)O)[C@@H](O)[C@H]2O)c(=O)[nH]1          µM        0.207

====

Target: Rho-A (Homo sapiens)
Sequence (P61586 2-181): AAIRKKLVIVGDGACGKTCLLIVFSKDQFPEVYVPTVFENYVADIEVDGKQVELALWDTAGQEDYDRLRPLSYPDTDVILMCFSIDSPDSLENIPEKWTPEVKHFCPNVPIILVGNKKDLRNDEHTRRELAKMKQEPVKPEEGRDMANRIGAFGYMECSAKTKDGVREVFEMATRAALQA
Experiment: SPA with [32P]GTP
Type: binding
Settings: read-out: SPA GTP Kd
measured property: Kd (nM)

                                   compound           measured_on  measured_property  test_result
0  Nc1nc2c(ncn2[C@@H]2O[C@H](COP(=O)(O)OP(=O)(O)OP(=O)(O)O)[C@@H](O)[C@H]2O)c(=O)[nH]1 [GTP]  Rho-A (Homo sapiens)                 Kd          129

====

Target: K-Ras (G12C) (Homo sapiens, UniProt P01116, G12C)
Experiment: SPA with [32P]GTP
Assay type: binding
Conditions: read-out: SPA GTP Kd
pKd: −log10 of the molar value.
measured property: pKd

                                smiles_text  measured_property  test_result
0  Nc1nc2c(ncn2[C@@H]2O[C@H](COP(=O)(O)OP(=O)(O)OP(=O)(O)O)[C@@H](O)[C@H]2O)c(=O)[nH]1                pKd         6.44
